The values you see were collected from patent US20240165281A1.

Test system: LNCaP tumor-bearing male CB-17 SCID mice
Test: Biodistribution studies 24 h p.i.
Conditions: mean
property.measured: uptake in tumor (% iD/g)
Your answer should be a plain number; it is taken to be in % iD/g.

In the examples that follow, each entry is paired with its recorded uptake in tumor.
compound	measurement.target	measured.value
CC(C)(C)[Si](F)(c1ccc(C(=O)NCC(NC(=O)CCC(C(=O)O)N2CCN(CC(=O)O)CCN(CC(=O)O)CCN(CC(=O)O)CC2)C(=O)NC(CN)C(=O)NCCC(=O)NCCC(=O)NCCCC(NC(=O)CCC(NC(=O)NC(CCC(=O)O)C(=O)O)C(=O)O)C(=O)O)cc1)C(C)(C)C (stereo not shown)	LNCaP tumor-bearing male CB-17 SCID mice	11.8594
CC(C)(C)[Si](F)(c1ccc(C(=O)NC[C@@H](NC(=O)[C@@H](CCCNC(N)=O)NC(=O)CC[C@@H](C(=O)O)N2CCN(CC(=O)O)CCN(CC(=O)O)CCN(CC(=O)O)CC2)C(=O)NCCCCCC(=O)NCCC[C@@H](NC(=O)CC[C@H](NC(=O)N[C@@H](CCC(=O)O)C(=O)O)C(=O)O)C(=O)O)cc1)C(C)(C)C	LNCaP tumor-bearing male CB-17 SCID mice	16.5415
CC(C)(C)[Si](F)(c1ccc(C(=O)NC[C@@H](NC(=O)CN2CCN(CC(=O)O)CCN(CC(=O)O)CCN(CC(=O)O)CC2)C(=O)N[C@H](CO)C(=O)NCCC(=O)NCCC(=O)NCCC[C@@H](NC(=O)CC[C@H](NC(=O)N[C@@H](CCC(=O)O)C(=O)O)C(=O)O)C(=O)O)cc1)C(C)(C)C	LNCaP tumor-bearing male CB-17 SCID mice	7.5897

Turning to the following compound.
For the compound CC(C)(C)[Si](F)(c1ccc(C(=O)NC[C@@H](NC(=O)[C@@H](CCCNC(N)=O)NC(=O)CC[C@H](C(=O)O)N2CCN(CC(=O)O)CCN(CC(=O)O)CCN(CC(=O)O)CC2)C(=O)NCCCCCC(=O)NCCC[C@@H](NC(=O)CC[C@H](NC(=O)N[C@@H](CCC(=O)O)C(=O)O)C(=O)O)C(=O)O)cc1)C(C)(C)C , what uptake in tumor is on record?
8.9821
